The reported measurements were obtained from paper PMC12040169.

Answer each item with its documented viability at 28.5 h, 10 µM.
- experimentNotes: in vitro
- assaySetup: human, hela cells, % viability
Express it in %; write the number only.

Prompt: Supply recorded viability at 28.5 h, 10 µM for Cn1nccc1NS(=O)(=O)c1ccc(-c2cnco2)s1 here.
Response: 94.4

Prompt: Provide viability at 28.5 h, 10 µM value for the following molecule: Cn1c(CSc2nc3sc4c(c3c(=O)[nH]2)CCCC4)nnc1SC/C=C/c1ccccc1
Response: 107

Prompt: Provide only the value of recorded viability at 28.5 h, 10 µM for Cc1cc(NC(=O)c2ccccc2)n(-c2nc(C)c(C)c(=O)[nH]2)n1
Response: 105

Prompt: Look up viability at 28.5 h, 10 µM of O=C(NCCCN1CCOCC1)Nc1cccc(Cl)c1Cl and report it.
Response: 85.5

Prompt: Supply measured viability at 28.5 h, 10 µM of O=C(Cn1cncn1)N[C@H]1C2CCCCC2[C@@H]1c1ccccc1 (some centres unmarked) in your reply.
Response: 93.3

----------
- experimentNotes: in vitro
- assaySetup: human, hela cells, % viability
readoutLabel: viability at 28.5 h, 10 µM (%)
Numbers only here, please. The scale is %.

Prompt: Identify measured viability at 28.5 h, 10 µM associated with CN1CCc2c1nc1ccccc1c2NC(=O)CN1CCCCCC1 [CBK278298G]
Response: 90.6

Prompt: Look up and state reported viability at 28.5 h, 10 µM for c1ccc(OCCNc2nccnc2N2CCNCC2)cc1 [CBK013527]
Response: 93.3

Prompt: Please indicate viability at 28.5 h, 10 µM recorded for O=C(NCc1ccco1)[C@@H]1C=CCN1C(=O)Nc1ccccc1Cl [CBK284269]
Response: 84.3

Prompt: // Input: O=C1CNC(=O)C2(C/C=C/C[C@H]3COCC[C@@H]3N1)CCN(C(=O)c1cccc(Cl)c1)CC2 [CBK292066] . Output its viability at 28.5 h, 10 µM only.
Response: 111

Prompt: Fill in reported viability at 28.5 h, 10 µM for this entry: Cc1ccc(CN(Cc2[nH]cnc2C)C2CC(C)(C)NC(C)(C)C2)o1 [CBK283176]
Response: 96.7

Prompt: Look up and state reported viability at 28.5 h, 10 µM for O=C(COc1ccc(S(=O)(=O)N2CCCCC2)cc1)Nc1ccc2c(c1)OCCO2 [CBK268205]
Response: 102

Prompt: Retrieve viability at 28.5 h, 10 µM measured for CC(C)(C)OC(=O)N1CCN(c2ccnc(Cl)n2)CC1 [CBK002095] and print it.
Response: 120

Prompt: Supply recorded viability at 28.5 h, 10 µM for Cc1nnnn1-c1cc(NC(=O)NCCN2CCOCC2)ccc1F [CBK306246] here.
Response: 89.2

Prompt: Quick one: give measured viability at 28.5 h, 10 µM for CC(=O)NCc1cccc(-c2cc(OCC3COc4ccccc4O3)cnc2C)c1 (centres unmarked) [CBK161723A]
Response: 112

Prompt: Answer with the recorded viability at 28.5 h, 10 µM of Cc1ccc(NC2=NC3(N=C(N)N2)C(=O)N(C)c2ccccc23)cc1 (centres unmarked) [CBK270157] only.
Response: 84.9

Prompt: Give reported viability at 28.5 h, 10 µM value for CC(C)COC(=O)N1CCN(C2CCc3cc(-c4ccc([S+](C)[O-])cc4)ccc3C2)CC1 (centres unmarked) [CBK173425]
Response: 89.8

Prompt: Input N#Cc1cccc(NC(=O)NC[C@H]2C[C@@H]3CC[N@]2C[C@@H]3CN2CCOCC2)c1 [CBK288763] , output reported viability at 28.5 h, 10 µM.
Response: 108

Prompt: For the compound CC(C)NC(=O)n1nccc1-c1cc(-c2ccccc2)no1 [CBK086581] , give its reported viability at 28.5 h, 10 µM.
Response: 102

Prompt: Return the recorded viability at 28.5 h, 10 µM value; entry: Nc1ncc(-c2cc(C(F)(F)F)cc(C(F)(F)F)c2)nc1-c1ccc(O)cc1 [CBK122503]
Response: 98.3

Prompt: Give me measured viability at 28.5 h, 10 µM, please, for this compound: Oc1nc2ccccc2nc1-c1ccccc1 [CBK016193]
Response: 94.3

Prompt: Output measured viability at 28.5 h, 10 µM for this item: Cc1ccccc1C(=O)N1CCC(O)(Cn2ccnc2C)CC1 [CBK284950]
Response: 105

Prompt: Answer with the recorded viability at 28.5 h, 10 µM for the compound listed here: c1ccc(NCCOc2nccnc2N2CCCC2)cc1 [CBK115814]
Response: 87.9

Prompt: Using the record for Fc1ccc(-c2cccc(Nc3ccc(Oc4ccccc4)cc3)n2)cc1Cl [CBK037699] , state its measured viability at 28.5 h, 10 µM.
Response: 102

Prompt: Indicate the recorded viability at 28.5 h, 10 µM value for this compound: Fc1ccc(C2C=C(c3ccc(F)cc3F)Nc3ncnn32)cc1 (centres unmarked) [CBK288095]
Response: 99.7

Prompt: Give viability at 28.5 h, 10 µM for the following compound: COc1ccc(F)c(C2NC(=O)CCC2N)c1 (centres unmarked) [CBK282905]
Response: 97.6

----------
- experimentNotes: in vitro
- assaySetup: human, hela cells, % viability
Exercise: state measured viability at 28.5 h, 10 µM for each of the compounds provided.
Give the value in % but do not write % after it.

Prompt: Check the records and state viability at 28.5 h, 10 µM for Cc1c(Cl)cccc1NC(=O)c1cnc2scc(C)n2c1=O [CBK287463]
Response: 117

Prompt: Look up and state reported viability at 28.5 h, 10 µM for Cc1nnc2ccc(N3CCN(Cc4cscn4)CC3)nn12 [CBK304910]
Response: 101

Prompt: Return value of viability at 28.5 h, 10 µM for input CCOC(=O)CN(C)Cc1c[nH]c2ccccc12 [CBK261869] , no commentary.
Response: 107

Prompt: Please indicate viability at 28.5 h, 10 µM recorded for O=C(CCc1cccnc1)Nc1ccc(Oc2ccccc2)cc1 [CBK295168]
Response: 99.8

Prompt: Output viability at 28.5 h, 10 µM of COc1ccc(C(C)c2cc3c(cc2N)OCO3)cc1 (stereo not shown) [CBK200102T]
Response: 87.2

Prompt: Supply reported viability at 28.5 h, 10 µM belonging to this compound: CC(C)(CN1CCCC1)NC(=O)c1cc(Cl)c(Cl)cc1C(=O)O [CBK287141]
Response: 89

Prompt: # return recorded viability at 28.5 h, 10 µM for input Cc1nn(CC(=O)N2CCN(Cc3ccccn3)CC2)c(C)c1Cl [CBK305978]
Response: 93.8

Prompt: Please report the measured viability at 28.5 h, 10 µM for CCCCN1CC(C(=O)OCC)=C(O)C1=O [CBK028774]
Response: 110

Prompt: Identify measured viability at 28.5 h, 10 µM associated with CC(C)N(CCOc1nccnc1-c1ccc(OC(F)(F)F)cc1)C(C)C [CBK106848]
Response: 89.3

Prompt: For CC(C)[C@H]1CN(Cc2ccco2)CCN1C(=O)N1CCOCC1 [CBK284273] , write its viability at 28.5 h, 10 µM.
Response: 82.2

----------
Exercise: state measured viability at 28.5 h, 10 µM for each of the molecules provided.
- experimentNotes: in vitro
- assaySetup: human, hela cells
Report as a plain number; the unit % is understood.

Prompt: Using known records, supply viability at 28.5 h, 10 µM for CN(Cc1ccc(-c2ccc(S(C)(=O)=O)cc2)nc1)C1CCN(C(=O)Oc2ccc(F)cc2)CC1
Response: 91.5

Prompt: Tell me its viability at 28.5 h, 10 µM given CC(N)Cc1cn(C)c2ccccc12 (centres unmarked) [CBK012030C] as the entry.
Response: 83.8

Prompt: Please supply the value of reported viability at 28.5 h, 10 µM for the item O=C(Nc1ccc(Cl)cc1)c1cccc(-n2cnnn2)c1
Response: 84.2

Prompt: Given CN(C)C(=O)Oc1cc(CN2CCCC2)c2ccn(S(=O)(=O)c3ccccc3)c2c1 [CBK137151T] , respond with its viability at 28.5 h, 10 µM.
Response: 101

Prompt: Using known records, supply viability at 28.5 h, 10 µM for CNC(=O)Oc1cccc2cccnc12
Response: 88.5

----------
- experimentNotes: in vitro
- assaySetup: human, hela cells, % viability
Binarize viability at 28.5 h, 10 µM at 90%; below is Condition met, at or above is Condition not met.

Prompt: Answer whether the compound COc1ccc(NC(=O)C[C@@H]2C[C@@H](C(C)C)[C@H](CC#N)C=C2C)cn1 [CBK289216] has viability at 28.5 h, 10 µM strictly less than 90%
Response: Condition met

Prompt: Determine if O=C(CN1CCC2(CC1)CN(CCO)c1ccccc12)Nc1ccc(F)c(Cl)c1 [CBK126761] shows viability at 28.5 h, 10 µM strictly lower than 90%.
Response: Condition not met

Prompt: Strictly below 90%: is that where viability at 28.5 h, 10 µM of Cc1ccc2[nH]cc(CCNC(=O)c3cccc(NC(=O)c4ccccc4)c3)c2c1 [CBK269235] sits?
Response: Condition met

Prompt: Strictly below 90% in viability at 28.5 h, 10 µM? c1ccc(OCc2nn3c(Cn4nnc5ccccc54)nnc3s2)cc1 [CBK268330]
Response: Condition not met

Prompt: In plain terms, does COc1cccc(C(=O)NC(c2ccc([N+](=O)[O-])cc2)c2c(O)ccc3ccccc23)c1 (stereo not shown) [CBK263971] come in under 90% for viability at 28.5 h, 10 µM?
Response: Condition met

Prompt: Find out if reported viability at 28.5 h, 10 µM for Cc1cc(N2CCCC2)c(F)cc1CN1CCC(CO)C1 (stereo not shown) [CBK282916] is less than 90%
Response: Condition not met

Prompt: A record lists CCOc1ccc(C(=O)C2=C(O)C(=O)N(CCN(C)C)C2c2cccnc2)cc1Cl (stereo not shown) [CBK266585] . Is its viability at 28.5 h, 10 µM below 90%?
Response: Condition not met

Prompt: # TODO verify viability at 28.5 h, 10 µM < 90% strictly for this compound: COc1ccc(NC(=O)C(=O)N/N=C/c2ccc(C(=O)O)cc2)cc1 [CBK262255]
Response: Condition not met

Prompt: Identify whether the compound Cc1cc(C2CCCCCN2C(=O)c2cccc(F)c2)on1 (stereo not shown) [CBK285448] records viability at 28.5 h, 10 µM below 90%.
Response: Condition not met

Prompt: In the record for CN1CCC(N(C)Cc2coc3ccccc3c2=O)CC1 [CBK261578] , is viability at 28.5 h, 10 µM less than 90%?
Response: Condition not met

Prompt: Does the reported viability at 28.5 h, 10 µM of Cc1ccc(-c2cc(C(=O)Nc3cccnc3)[nH]n2)c(O)c1C [CBK288158] stay below 90%?
Response: Condition not met

Prompt: Criterion: viability at 28.5 h, 10 µM strictly below 90%. Is it met by C=CCN(c1ccccc1)S(=O)(=O)c1ccc(C(C)(C)CC)cc1 [CBK200036] ?
Response: Condition not met

Prompt: Strictly below 90%: is that where viability at 28.5 h, 10 µM of Cc1[nH]nc(O)c1Cc1ccccc1F [CBK105306] sits?
Response: Condition not met
